# testedTarget: RORγt (hRORC LBD) (Homo sapiens, UniProt P51449)
# Construct: expressed in transfected cells; host or cells: HEK 293 (transient cotransfection with pGL4.3 luc2P/GAL4UAS/Hygro reporter)
# methodSummary: RGA Assay: nuclear receptor transactivation assay, RORγt transactivation of a luciferase reporter
# Format: cell-based
# conditionContext: transiently transfected HEK 293 cells, Gal4DBD hRORC LBD, 20-24 hours incubation
parameterMeasured: pIC50
pIC50 is a log-scale quantity: -log10 of the concentration expressed in molar.

Problem: Return the recorded pIC50 value; entry: CNS(=O)(=O)c1ccc(CNC(=O)N2CC3(CCCC3)c3cc(-c4ccc(O)cc4C)ccc32)cc1 [Example 11]
Result: 6.16

Problem: Determine from records and report pIC50 for CNS(=O)(=O)c1ccc(CNC(=O)N2CC3(CCCC3)c3cc(-c4cccc(C)c4C)ccc32)cc1 [Example 22]
Result: 5.92

Problem: Tell me pIC50 reported for CCS(=O)(=O)c1ccc(CNC(=O)N2CC3(CC3)c3cc(-c4c(OC)ncnc4C4CC4)ccc32)cc1 [Example 125]
Result: 5.96

Further cases:
Problem: Respond only with pIC50 recorded for CNS(=O)(=O)c1ccc(CNC(=O)N2CC3(CCCC3)c3cc(-c4ccncc4C(F)(F)F)ccc32)cc1 [Example 36]
Result: 6.05

###

# testedTarget: RORγt (hRORC LBD) (Homo sapiens, UniProt P51449)
# methodSummary: RGA Assay: nuclear receptor transactivation assay, RORγt transactivation of a luciferase reporter
# conditionContext: transiently transfected HEK 293 cells, Gal4DBD hRORC LBD, 20-24 hours incubation
parameterMeasured: pIC50
Give only the number. pIC50 is defined as minus log10 of concentration in molar units.

The examples below pair each entry with its known result.
Problem: // fetch pIC50 given entry CCOCc1ccccc1-c1ccc2c(c1)C1(CCCC1)CN2C(=O)NCc1ccc(S(=O)(=O)NC)cc1
Result: 5.96

Problem: Query pIC50 for CCC1(CC)CN(C(=O)NCc2ccc(S(=O)(=O)NC)cc2)c2ccc(-c3ccc(F)cc3C)cc21
Result: 5.96

Problem: Please look at this compound and report its pIC50: COc1ncnc(C(F)(F)F)c1-c1ccc2c(c1)C1(CCCC1)CN2C(=O)NCc1ccc(S(C)(=O)=O)cc1
Result: 6.22

Problem: Give pIC50 for the following compound: CNS(=O)(=O)c1ccc(CNC(=O)N2CC3(CCCC3)c3cc(-c4c(C)ccc5c4cnn5C)ccc32)cc1
Result: 6.12

Problem: # return recorded pIC50 for entry CNS(=O)(=O)c1ccc(CNC(=O)N2CC3(CCCC3)c3cc(-c4ccccc4COC)ccc32)cc1
Result: 5.96

Problem: Supply measured pIC50 of COCCOc1cc(S(C)(=O)=O)ccc1CNC(=O)N1CC2(CCCC2)c2cc(-c3ccc(OC)cc3C(F)(F)F)ccc21 in your reply.
Result: 5.96

***
Problem: Give a short answer stating reported pIC50 for CCC(C)c1ncncc1-c1ccc2c(c1)C1(CCCC1)CN2C(=O)NCc1ccc(S(C)(=O)=O)cc1 (centres unmarked) .
Result: 5.82

Problem: Query pIC50 for CCS(=O)(=O)c1ccc(CNC(=O)N2C[C@@](C)(C3CC3)c3cc(-c4c(OC)ncnc4C4CC4)ccc32)cc1
Result: 6.40

Problem: Consider the compound CNS(=O)(=O)c1ccc(CNC(=O)N2CC3(CCCC3)c3cc(Oc4cccc(OC(F)(F)F)c4)ccc32)cc1 and give its recorded pIC50.
Result: 6.14

Problem: Give the value of pIC50 reported for the following: CCS(=O)(=O)c1ccc(CNC(=O)N2CC3(CCCC3)c3cc(-c4cnc(N(C)C)nc4C4CC4)ccc32)cc1
Result: 6.49

Problem: Identify measured pIC50 corresponding to CCS(=O)(=O)c1ccc(CNC(=O)N2CC(C)(C3CCC3)c3cc(-c4c(OC)ncnc4C4CC4)ccc32)cc1 (centres unmarked)
Result: 6.32

Problem: Quote pIC50 reported for COc1ncc(-c2ccc3c(c2)C2(CCCC2)CN3C(=O)NCc2ccc(S(C)(=O)=O)cc2)c(C2CC2)n1 please.
Result: 5.80

Problem: Identify pIC50 associated with the compound CCS(=O)(=O)c1ccc(CNC(=O)N2CC3(CCCC3)c3cc(-c4cc(CN5CCC(C#N)CC5)ccc4C)ccc32)cc1
Result: 6.22

Problem: Note down pIC50 recorded for COc1cc(C#N)ccc1CNC(=O)N1CC2(CCCC2)c2cc(-c3ccc(O)cc3C(F)(F)F)ccc21
Result: 6.74

Problem: Tell us which pIC50 value is on record for CNS(=O)(=O)c1ccc(CNC(=O)N2CC3(CCCC3)c3cc(-c4c(F)cccc4C#N)ccc32)cc1
Result: 6.10

Problem: Given the compound CNS(=O)(=O)c1ccc(CNC(=O)N2CC3(CCCC3)c3cc(-c4ccc(F)cc4C)ccc32)cc1 , write its reported pIC50.
Result: 6.08

###

# testedTarget: RORγt (hRORC LBD) (Homo sapiens, UniProt P51449)
# methodSummary: RGA Assay: nuclear receptor transactivation assay, RORγt transactivation of a luciferase reporter
# conditionContext: transiently transfected HEK 293 cells, Gal4DBD hRORC LBD, 20-24 hours incubation
parameterMeasured: IC50
Please state the value followed by its unit.

Here is how some compounds turned out for IC50.
Problem: Note IC50 for the compound shown: CNS(=O)(=O)c1ccc(CNC(=O)N2CC3(CCCC3)c3cc(-c4cccc(F)c4C)ccc32)cc1 [Example 77]
Result: 760 nM

Problem: Tell me its IC50 given CNS(=O)(=O)c1ccc(CNC(=O)N2CC3(CCCC3)c3cc(Oc4cc(OC)ccc4C)ccc32)cc1 [Example 63] as the entry.
Result: 1400 nM

Problem: Provide one value: measured IC50 of CCS(=O)(=O)c1ccc(CNC(=O)N2CC3(CCCC3)c3cc(-c4ccc(C#N)cc4C)ccc32)cc1 [Example 71]
Result: 740 nM

Problem: Find the measured IC50 of CNS(=O)(=O)c1ccc(CNC(=O)N2CC3(CCCC3)c3cc(-c4cc(F)ccc4CC#N)ccc32)cc1 [Example 46] and report it.
Result: 1300 nM

Problem: Look up and report measured IC50 for this entry: CNS(=O)(=O)c1ccc(CNC(=O)N2CC3(CCCC3)c3cc(-c4ccc(O)cc4C#N)ccc32)cc1 [Example 88]
Result: 910 nM

Next:
Problem: Please list IC50 recorded for the compound CNS(=O)(=O)c1ccc(CNC(=O)N2CC3(CCCC3)c3cc(-c4cnccc4C(F)(F)F)ccc32)cc1 [Example 25]
Result: 1300 nM

Problem: State its IC50: CNS(=O)(=O)c1ccc(CNC(=O)N2CC3(CCCC3)c3cc(Oc4ccc(F)c(OC(F)(F)F)c4)ccc32)cc1 [Example 62]
Result: 970 nM

Problem: Tell me measured IC50 for CCC1(C)CN(C(=O)NCc2ccc(S(=O)(=O)NC)cc2)c2ccc(-c3ccc(F)cc3C)cc21 (stereo not drawn) [Example 53] please.
Result: 1200 nM

Problem: Fill in reported IC50 for this entry: CNS(=O)(=O)c1ccc(CNC(=O)N2CC3(CCCC3)c3cc(-c4ccc(OC)cc4C)ccc32)cc1 [Example 23]
Result: 1200 nM

Problem: Entry CNS(=O)(=O)c1ccc(CNC(=O)N2CC3(CCCC3)c3cc(-c4ccccc4COC(C)(C)C)ccc32)cc1 [Example 81] needs its IC50 filled in; supply it.
Result: 980 nM

Problem: Give the measured IC50 for CNS(=O)(=O)c1ccc(CNC(=O)N2CC3(CCCC3)c3cc(-c4ccccc4CC(F)(F)F)ccc32)cc1 [Example 87]
Result: 680 nM

###

# testedTarget: RORγt (hRORC LBD) (Homo sapiens, UniProt P51449)
# Sequence (P51449 269-508 limits assumed): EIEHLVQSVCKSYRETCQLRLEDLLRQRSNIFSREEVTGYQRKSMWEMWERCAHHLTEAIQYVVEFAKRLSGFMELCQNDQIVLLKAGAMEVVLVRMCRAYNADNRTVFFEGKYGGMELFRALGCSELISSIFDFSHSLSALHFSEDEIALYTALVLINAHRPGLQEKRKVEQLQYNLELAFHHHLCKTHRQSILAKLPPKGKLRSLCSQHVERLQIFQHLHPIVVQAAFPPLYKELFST
# methodSummary: RGA Assay: nuclear receptor transactivation assay, RORγt transactivation of a luciferase reporter
# conditionContext: transiently transfected HEK 293 cells, Gal4DBD hRORC LBD, 20-24 hours incubation
parameterMeasured: pIC50
Give only the number. pIC50 is defined as minus log10 of concentration in molar units.

See these solved cases before continuing.
Problem: Report pIC50, nothing else, for this molecule: COc1ccc(-c2ccc3c(c2)C2(CCCC2)CN3C(=O)NCc2ccc(C#N)c(C)c2)c(C(F)(F)F)c1
Result: 6.11

Problem: Give the measured pIC50 for CNS(=O)(=O)c1ccc(CNC(=O)N2CC3(CCCC3)c3cc(-c4ccc(NC(C)=O)cc4C)ccc32)cc1
Result: 5.72

Problem: Quick one: give measured pIC50 for CNS(=O)(=O)c1ccc(CNC(=O)N2CC3(CCCC3)c3cc(-c4cc5cnn(C)c5cc4C)ccc32)cc1
Result: 6.14

Problem: Dear colleague, please send me the reported pIC50 for CNS(=O)(=O)c1ccc(CNC(=O)N2CC3(CCCC3)c3cc(-c4cc(C)ccc4C)ccc32)cc1 when you can.
Result: 6.00

New cases:
Problem: Give the value of pIC50 reported for the following: CNS(=O)(=O)c1ccc(CNC(=O)N2CC3(CCCC3)c3cc(-c4cc(OC)c(OC)cc4C(=O)OC)ccc32)cc1
Result: 5.85

Problem: Entry CNS(=O)(=O)c1ccc(CNC(=O)N2CC3(CCCCC3)c3cc(-c4ccc(F)cc4C)ccc32)cc1 needs its pIC50 filled in; supply it.
Result: 5.82

All values here come from patent US9745267B2.
